assaySystem: recombinant human DAO (diamine oxidase) (Homo sapiens)
Construct: purchased R&D systems
methodSummary: Activity on recombinant human DAO, method similar to the VAP-1 assay
Assay type: biochemical
testSettings: substrate 1 mM putrescine; read-out: Inhibitory Activity (IC50, nM) DAO
Where a name gives a salt, the structure may show the parent alone.
measurementName: IC50 (nM)

Some compounds with known IC50 results, for comparison:
- compound: "NC/C(=C\\F)Cn1ncn(CCc2cccs2)c1=O"
  assayResult: 4200
- compound: "CN1CCNc2cc(-c3ccc(Cn4cnn(C/C(=C/F)CN)c4=O)s3)ccc21"
  assayResult: 390
- compound: "NC/C(=C\\F)Cn1ncn(Cc2ccc(-c3ccc4c(c3)NCCO4)s2)c1=O"
  assayResult: 8500
- compound: "NC/C(=C\\F)Cn1ncn(Cc2ccc(-c3ccc(C4CCOCC4)cc3)s2)c1=O [Example 25, hydrochloride]"
  assayResult: 690
- compound: "NC/C(=C\\F)Cn1ncn(Cc2cc3cc(-c4ccc(C(F)(F)F)nc4)ccc3s2)c1=O"
  assayResult: 1500

(I) CCOc1ncc(-c2ccc(Cn3cnn(C/C(=C/F)CN)c3=O)s2)cn1
(II) CN(C)C(=O)c1cccc(-c2ccc(Cn3cnn(C/C(=C/F)CN)c3=O)s2)c1
(III) NC/C(=C\F)Cn1ncn(Cc2ccc(-c3ccc(CCO)cc3)s2)c1=O
Problem: Put these in order: smallest IC50 first, largest last. Order the labels as requested and give them as your answer.
Solution: I, II, III
(I: 89 nM, II: 3600 nM, III: 16000 nM)

###

Examples of molecules with documented IC50 follow.
assaySystem: recombinant human MAO-A (monoamine oxidase-A) (Homo sapiens)
Construct: purchased Sigma-Aldrich
Sequence (P21397 whole entry): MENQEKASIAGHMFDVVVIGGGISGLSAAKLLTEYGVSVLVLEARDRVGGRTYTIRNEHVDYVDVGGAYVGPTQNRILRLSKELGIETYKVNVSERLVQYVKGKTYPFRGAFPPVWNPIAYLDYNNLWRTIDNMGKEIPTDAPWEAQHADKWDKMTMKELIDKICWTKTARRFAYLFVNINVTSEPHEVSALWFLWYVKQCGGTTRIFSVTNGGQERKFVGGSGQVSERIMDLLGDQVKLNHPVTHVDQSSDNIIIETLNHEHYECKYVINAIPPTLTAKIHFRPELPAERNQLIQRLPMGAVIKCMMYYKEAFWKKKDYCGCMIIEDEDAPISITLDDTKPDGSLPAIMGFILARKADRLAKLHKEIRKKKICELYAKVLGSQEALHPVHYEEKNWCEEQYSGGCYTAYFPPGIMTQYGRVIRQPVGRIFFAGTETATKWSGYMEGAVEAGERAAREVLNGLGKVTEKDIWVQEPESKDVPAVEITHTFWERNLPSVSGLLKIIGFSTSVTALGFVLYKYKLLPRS
methodSummary: Activity on recombinant human MAO-A, method similar to the VAP-1 assay
Type: biochemical
testSettings: substrate 0.5 mM tyramine; read-out: Inhibitory Activity (IC50, nM) MAO-A
Where a name gives a salt, the structure may show the parent alone.

Some molecules with known IC50 results, for comparison:
- molecule: "NC/C(=C\\F)Cn1ncn(Cc2ccc(-c3ccc(S(=O)(=O)N4CCOCC4)cc3)s2)c1=O [Example 29, hydrochloride]"
  assayResult: "> 100000 nM"
- molecule: "CC(=O)Nc1nc2cc(-c3ccc(Cn4cnn(C/C(=C/F)CN)c4=O)s3)ccc2s1"
  assayResult: "22500 nM"
- molecule: "CN(C)c1ncc(-c2ccc(Cn3cnn(C/C(=C/F)CN)c3=O)s2)cn1 [Example 55, hydrochloride]"
  assayResult: "> 100000 nM"
- molecule: "COC(=O)c1cccc(-c2ccc(Cn3cnn(C/C(=C/F)CN)c3=O)s2)c1 [Example 11, hydrochloride]"
  assayResult: "> 100000 nM"
- molecule: "Cc1cc(-c2ccc(Cn3cnn(C/C(=C/F)CN)c3=O)s2)cc2ccc(=O)[nH]c12"
  assayResult: "> 100000 nM"
- molecule: "CN1C(=O)CCc2cc(-c3ccc(Cn4cnn(C/C(=C/F)CN)c4=O)s3)ccc21 [Example 79, hydrochloride]"
  assayResult: "> 100000 nM"
- molecule: "CN(C)S(=O)(=O)c1cccc(-c2ccc(Cn3cnn(C/C(=C/F)CN)c3=O)s2)c1"
  assayResult: "> 100000 nM"
- molecule: "CN(C)c1cc(-c2ccc(Cn3cnn(C/C(=C/F)CN)c3=O)s2)ccc1F [Example 6, hydrochloride]"
  assayResult: "> 100000 nM"

Problem: Provide the documented IC50 with recombinant human MAO-A (monoamine oxidase-A) (Homo sapiens) as the system for NC/C(=C\F)Cn1ncn(Cc2ccc(-c3ccc(-c4noc(C5CC5)n4)cc3)s2)c1=O [Example 35, hydrochloride]
Solution: 39600 nM

Problem: Provide the documented IC50 with recombinant human MAO-A (monoamine oxidase-A) (Homo sapiens) as the system for CN(C)c1cccc(-c2ccc(Cn3cnn(C/C(=C/F)CN)c3=O)s2)c1 [Example 4, hydrochloride]
Solution: 35000 nM

Problem: Provide the documented IC50 with recombinant human MAO-A (monoamine oxidase-A) (Homo sapiens) as the system for "NC/C(=C\F)Cn1ncn(Cc2ccc(-c3ccc(=O)n(Cc4ccccc4)c3)s2)c1=O"
Solution: > 100000 nM

Problem: Provide the documented IC50 with recombinant human MAO-A (monoamine oxidase-A) (Homo sapiens) as the system for "CS(=O)(=O)CCn1cc(-c2ccc(Cn3cnn(C/C(=C/F)CN)c3=O)s2)ccc1=O"
Solution: > 100000 nM

Problem: Provide the documented IC50 with recombinant human MAO-A (monoamine oxidase-A) (Homo sapiens) as the system for "NC/C(=C\F)Cn1ncn(Cc2ccc(-c3cnc(N)nc3)s2)c1=O"
Solution: > 100000 nM

Problem: Provide the documented IC50 with recombinant human MAO-A (monoamine oxidase-A) (Homo sapiens) as the system for Cn1cc(C#Cc2ccc(Cn3cnn(C/C(=C/F)CN)c3=O)s2)cn1 [Example 131, hydrochloride]
Solution: > 100000 nM

###

assaySystem: recombinant human DAO (diamine oxidase) (Homo sapiens, UniProt P19801)
Construct: purchased R&D systems
Sequence (P19801 20-751): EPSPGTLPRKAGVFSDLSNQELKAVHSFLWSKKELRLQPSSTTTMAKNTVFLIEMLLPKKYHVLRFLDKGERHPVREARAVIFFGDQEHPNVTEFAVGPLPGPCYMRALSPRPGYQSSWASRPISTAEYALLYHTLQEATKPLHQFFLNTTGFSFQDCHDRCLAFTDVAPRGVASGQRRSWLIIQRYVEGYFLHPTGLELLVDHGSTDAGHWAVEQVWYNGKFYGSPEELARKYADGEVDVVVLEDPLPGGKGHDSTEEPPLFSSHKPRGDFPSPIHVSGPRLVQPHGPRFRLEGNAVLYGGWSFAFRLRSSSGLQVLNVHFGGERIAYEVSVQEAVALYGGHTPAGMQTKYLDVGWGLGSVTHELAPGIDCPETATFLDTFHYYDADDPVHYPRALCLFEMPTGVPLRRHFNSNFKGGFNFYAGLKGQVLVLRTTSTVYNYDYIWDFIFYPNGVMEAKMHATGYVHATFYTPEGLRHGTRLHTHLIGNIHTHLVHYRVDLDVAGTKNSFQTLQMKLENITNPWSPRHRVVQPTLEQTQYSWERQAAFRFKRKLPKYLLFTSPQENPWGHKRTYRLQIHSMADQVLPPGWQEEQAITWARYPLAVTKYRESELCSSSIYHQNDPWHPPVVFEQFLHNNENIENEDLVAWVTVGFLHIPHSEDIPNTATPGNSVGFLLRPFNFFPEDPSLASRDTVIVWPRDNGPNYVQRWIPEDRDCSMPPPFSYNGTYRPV
methodSummary: Activity on recombinant human DAO, method similar to the VAP-1 assay
Format: biochemical
testSettings: substrate 1 mM putrescine; read-out: Inhibitory Activity (IC50, nM) DAO
Counter-ions that a name gives are not always drawn.
measurementName: IC50 (nM)

(I) CC(C)(C)NS(=O)(=O)c1cncc(-c2ccc(Cn3cnn(C/C(=C/F)CN)c3=O)s2)c1 [Example 186]
(II) Cn1cnc2cc(/C=C/c3ccc(Cn4cnn(C/C(=C/F)CN)c4=O)s3)cnc21 [Example 123, hydrochloride]
(III) CN(C)c1ccc(-c2ccc(Cn3cnn(C/C(=C/F)CN)c3=O)s2)cn1 [Example 42, hydrochloride]
(IV) N#Cc1ccc(-c2ccc(Cn3cnn(C/C(=C/F)CN)c3=O)s2)cn1 [Example 50, hydrochloride]
Problem: rank_up(items): orders items by reported IC50 in ascending numerical order. Order the labels as requested and give them as your answer.
Solution: I, II, IV, III

###

assaySystem: recombinant human VAP-1 (Homo sapiens, UniProt Q16853)
Construct: purchased R&D systems
Sequence (Q16853 whole entry): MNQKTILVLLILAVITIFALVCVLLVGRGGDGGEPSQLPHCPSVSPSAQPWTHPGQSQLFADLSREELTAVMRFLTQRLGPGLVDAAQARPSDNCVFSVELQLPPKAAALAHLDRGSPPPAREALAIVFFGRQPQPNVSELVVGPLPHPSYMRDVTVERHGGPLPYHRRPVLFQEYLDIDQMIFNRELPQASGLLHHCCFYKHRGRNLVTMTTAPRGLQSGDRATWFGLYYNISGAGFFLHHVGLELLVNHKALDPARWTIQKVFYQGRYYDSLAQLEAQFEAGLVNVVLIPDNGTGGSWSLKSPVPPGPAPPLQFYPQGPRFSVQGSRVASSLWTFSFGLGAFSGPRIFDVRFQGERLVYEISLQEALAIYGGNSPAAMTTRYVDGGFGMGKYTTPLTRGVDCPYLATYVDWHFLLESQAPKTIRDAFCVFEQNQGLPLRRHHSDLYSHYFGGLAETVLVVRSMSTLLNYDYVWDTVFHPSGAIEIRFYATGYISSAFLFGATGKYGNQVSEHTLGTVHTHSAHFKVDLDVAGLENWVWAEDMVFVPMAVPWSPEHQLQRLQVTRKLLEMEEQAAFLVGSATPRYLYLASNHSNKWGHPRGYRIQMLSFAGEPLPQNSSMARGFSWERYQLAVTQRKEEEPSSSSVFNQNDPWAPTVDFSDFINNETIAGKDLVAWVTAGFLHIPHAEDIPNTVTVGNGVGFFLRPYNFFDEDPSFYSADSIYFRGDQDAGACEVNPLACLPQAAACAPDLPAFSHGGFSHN
methodSummary: Activity on recombinant human VAP-1, HRP-coupled Amplex Red hydrogen peroxide assay
Assay type: biochemical
testSettings: substrate 1 mM benzylamine; compound incubated with enzyme at 37° C. for 30 minutes; pH 7.4; read-out: Inhibitory Activity (IC50, nM) human VAP-1
Where a name gives a salt, the structure may show the parent alone.
measurementName: IC50 (nM)

- molecule: "CN(C)c1ccc(/C=C/c2ccc(Cn3cnn(C/C(=C/F)CN)c3=O)s2)cc1"
  measurementName: "IC50"
  unitDescriptor: "nM"
  assayResult: 6.2

(A) NC/C(=C\F)Cn1ncn(Cc2ccc(C#Cc3cnc4c(c3)OCCN4)s2)c1=O
(B) NC/C(=C/F)Cn1ncn(Cc2ccc(-c3ccc(-c4nnc[nH]4)cc3)s2)c1=O
Problem: // pick larger IC50 from pair: A vs B Return value: the label identifying the chosen record.
Solution: A
(A: 1.4 nM, B: 0.97 nM)

(a) NC/C(=C\F)Cn1ncn(Cc2ccc(-c3ccc4c(c3)CCCO4)s2)c1=O [Example 109, hydrochloride]
(b) CN(C)c1ccc(C#Cc2ccc(Cn3cnn(C/C(=C/F)CN)c3=O)s2)cn1
Problem: Lower value for measured IC50? Options: a , b Return value: the label identifying the chosen record.
Solution: b

(I) CN1C(=O)CCc2cc(-c3ccc4sc(Cn5cnn(C/C(=C/F)CN)c5=O)cc4c3)ccc21
(II) CN(C)c1ccc(-c2ccc(CCn3cnn(C/C(=C/F)CN)c3=O)s2)cn1
Problem: // pick larger IC50 from pair: I vs II Return value: the label identifying the chosen record.
Solution: I
(I: 1.9 nM, II: 0.7 nM)
